Every entry's value here was drawn from patent US7829560B2.

Below is a list of entries, each paired with its recorded inhibition at 10 µM value.
Target: p38α (Homo sapiens, UniProt Q16539)
Construct: p38 MAP Kinases are recombinant human full-length proteins with an amino-terminal GST fusion; GST (N); purchased Upstate Biotechnology Inc; host or cells: E. coli
Sequence (Q16539 whole entry, the tested form may be a part): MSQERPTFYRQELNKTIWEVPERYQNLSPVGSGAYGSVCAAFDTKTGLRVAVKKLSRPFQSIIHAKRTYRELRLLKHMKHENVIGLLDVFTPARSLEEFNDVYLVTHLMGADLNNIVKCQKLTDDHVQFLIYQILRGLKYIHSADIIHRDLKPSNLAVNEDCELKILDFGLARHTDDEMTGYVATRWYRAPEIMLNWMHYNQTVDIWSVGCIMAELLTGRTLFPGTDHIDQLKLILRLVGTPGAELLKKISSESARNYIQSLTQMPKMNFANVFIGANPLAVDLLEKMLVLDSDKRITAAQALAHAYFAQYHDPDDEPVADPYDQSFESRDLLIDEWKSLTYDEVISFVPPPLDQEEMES
Assay: p38 MAP Kinase assay: inhibition of ATF2 phosphorylation, ELISA
Type: biochemical
Conditions: 10 uM; substrate ATF2; read-out: [ENZ] P38 ALPHA, PCT INH, ELISA (10 uM;ATF2) (Percent)
Kindly answer with a numeric value in %, unit omitted.

Solved entries:
O=C(Nc1ccc(OCCN2CCCCC2)c2ccccc12)c1ccnc(Cl)c1 [Compound B7] :: 21
O=C(Nc1ccc(OCCN2CCOCC2)c2ccccc12)c1cccc(N2CCC(c3ccccc3)CC2)n1 [Compound B72] :: 0
Cc1cc(C(=O)Nc2ccc(OCCN3CCOCC3)c3ccccc23)cc(N2CCCC2c2ccccc2Cl)n1 (stereo not shown) [Compound B156] :: 19

Shifting focus to the compound that follows.
API: value(readout=inhibition at 10 µM, system=p38α (Homo sapiens, UniProt Q16539)) for record Cc1cc(C)cc(-c2cccc(C(=O)Nc3ccc(OCCN4CCOCC4)c4ccccc34)c2)c1 [Compound B113]
29

---

Biological target: p38α (Homo sapiens)
Construct: p38 MAP Kinases are recombinant human full-length proteins with an amino-terminal GST fusion; GST (N)
Assay: p38 MAP Kinase assay: inhibition of ATF2 phosphorylation, ELISA
Details: ATF2 phosphorylation; read-out: [ENZ] P38 ALPHA, IC50, ELISA
Description: Compounds of the invention are screened for the ability to inhibit ATF2 phosphorylation by p38 MAP Kinase in vitro. […]
measured.endpoint: log10 of IC50 (log10 of the value in µM)
log10 IC50, µM

May I ask what log10 of IC50 has been recorded for `O=C(Nc1ccc(OCCCN2CCC(O)CC2)c2ccccc12)c1cc(F)cc(N2CCCCC2)c1` ?
1.00

Next compound: CC1=NC(C)(COc2ccc(NC(=O)c3cc(F)cc(N4CCOCC4)c3)c3ccccc23)CO1 (centres unmarked)
0.90

---

Target: p38α (Homo sapiens, UniProt Q16539)
Construct: p38 MAP Kinases are recombinant human full-length proteins with an amino-terminal GST fusion; GST (N); purchased Upstate Biotechnology Inc; host or cells: E. coli
Test: p38 MAP Kinase assay: inhibition of ATF2 phosphorylation, ELISA
Assay type: biochemical
Conditions: 10 uM; substrate ATF2; read-out: [ENZ] P38 ALPHA, PCT INH, ELISA (10 uM;ATF2) (Percent)
Below, each entry is listed alongside its reported inhibition at 10 µM.
Reply with just the number (in %).

Examples with answers:
O=C(Nc1ccc(OCCN2CCOCC2)c2ccccc12)c1cccc(-c2ccccc2Oc2ccccc2)c1 [Compound B115] :: 10
Cc1cc(C(=O)Nc2ccc(OCCN3CCOCC3)c3ccccc23)cc(N2CCCC2C)n1 (centres unmarked) [Compound B155] :: 89
Cc1cccc(C(=O)Nc2ccc(OCCN3CCOCC3)c3ccccc23)c1Cl [Compound B82] :: 41.3

Identify the measured inhibition at 10 µM of O=C(Nc1ccc(OCCN2CCOCC2)c2ccccc12)c1cccc(N2CCN(c3ccc(F)cc3)CC2)n1 [Compound B139] for p38α (Homo sapiens, UniProt Q16539).
7

# iterate: CC(C)c1cc(C(=O)Nc2ccc(OCCN3CCOCC3)c3ccccc23)c(O)c(C(C)C)c1 [Compound B76]
0

Entry O=C(Nc1ccc(OCCN2CCOCC2)c2ccccc12)c1cccc(-c2ccncc2)c1 [Compound B86] please
67

Proceed to CCOc1ccc(-c2cccc(C(=O)Nc3ccc(OCCN4CCOCC4)c4ccccc34)c2)cc1 [Compound B107]
2

Next record, please: Cc1cc(C(=O)Nc2ccc(OCCN3CCOCC3)c3ccccc23)cc(N2CCc3ccccc3C2)n1 [Compound B150]
15
